Test: photoluminescence quantum yield (fraction); solvent given as SMILES
Conditions: in CC(C)=O
value kind: photoluminescence quantum yield
Hey, just send me the number, nothing else.

Completed entries (count: 3):
>>> numeric_value("COc1ccc(C2=CC(c3cc(OC)cc(OC)c3)=[O+][B-](F)(F)O2)cc1")
0.04
>>> numeric_value("CC1=[N+]2C(=C(c3ccc(N4CCOCC4)cc3)c3ccc(C)n3[B-]2(F)F)C=C1")
0.002
>>> numeric_value("CC1=[N+]2C(=C(c3ccc(N4CCCCC4)cc3)c3ccc(C)n3[B-]2(F)F)C=C1")
0.002

QUERY: Answer with the recorded photoluminescence quantum yield for the molecule listed here: "CCn1c2ccccc2c2cc(/C=C/c3cccc[n+]3CCCS(=O)(=O)[O-])ccc21"
RESULT: 0.03

QUERY: Note photoluminescence quantum yield for the molecule shown: COC(=O)C(Cc1ccc2oc(-c3ccc(N(C)C)cc3)nc2c1)NC(=O)OC(C)(C)C (stereo not given)
RESULT: 1

QUERY: Return photoluminescence quantum yield for the following molecule: "CCC1=C(C)C2=Cc3c(I)c(I)c(I)n3[B-](F)(F)[N+]2=C1C"
RESULT: 0.029

QUERY: Report measured photoluminescence quantum yield; entry is "CN(C)CCN(Cc1c2ccccc2cc2ccccc12)c1ccc([N+](=O)[O-])cc1"
RESULT: 0.022

QUERY: Determine its reported photoluminescence quantum yield: "CN(C)c1ccc(/C=C2\CC/C(=C\c3ccc(C#N)cc3)C2=O)cc1"
RESULT: 0.0095

QUERY: Give the value of photoluminescence quantum yield reported for the following: "Cc1ccc(C(=O)NN2C3=C(CC4=C2CCCC4=O)C(=O)CCC3)cc1"
RESULT: 0.32

QUERY: Please indicate photoluminescence quantum yield recorded for COC(=O)C(Cc1ccc2oc(-c3ccc(N(C)c4ccccc4)cc3)nc2c1)NC(=O)OC(C)(C)C (stereo not given)
RESULT: 0.19

====

Assay: photoluminescence quantum yield (fraction); solvent given as SMILES
Conditions: in ClCCl
value kind: photoluminescence quantum yield

Sample records with photoluminescence quantum yield:
>>> result("CCCCn1c2c(-c3ccc(N(c4ccccc4)c4ccccc4)cc3)cc(C#N)cc2c2cc(C#N)cc(-c3ccc(N(c4ccccc4)c4ccccc4)cc3)c21")
0.6
>>> result("CCCCCCCCCCOc1ccc(C#Cc2cc3c(C#Cc4ccc(OCCCCCCCCCC)cc4)c(C#Cc4ccc(OCCCCCCCCCC)cc4)c4cc(C#Cc5ccc(OCCCCCCCCCC)cc5)cc5c(C#Cc6ccc(OCCCCCCCCCC)cc6)c(C#Cc6ccc(OCCCCCCCCCC)cc6)c(c2)c3c45)cc1")
0.44

QUERY: Answer with the recorded photoluminescence quantum yield for the compound listed here: "F[B-]1(F)n2c(nc3c4ccccc4c4ccccc4c32)-c2cccc[n+]21"
RESULT: 0.32

QUERY: Give the reported photoluminescence quantum yield for this compound. "O=C1C(=c2c(=O)c3c4ccccc4cc4cc5ccccc5c2c43)C(=O)c2ccccc21"
RESULT: 0.193

====

Test: photoluminescence quantum yield (fraction); solvent given as SMILES
Details: in C1COCCO1
value kind: photoluminescence quantum yield
I'd appreciate a reply containing only the number, no unit.

These solved cases illustrate the format of a correct answer.
>>> numeric_value("CN1C(C(=O)Nc2ccccn2)=C(O)c2sccc2S1(=O)=O")
0.0191
>>> numeric_value("CC1=CC(=[N+]2CCC2)C=C2C1=Nc1c(C)cc(N3CCC3)cc1[Si]2(C)C")
0.11
>>> numeric_value("CCCCN(CCCC)c1ccc(/C=C/c2ccc3nc(/C=C/c4ccc(N(C)C)cc4)c(=O)n(CCC)c3c2)cc1")
0.26
>>> numeric_value("Cc1ccc(OCc2cc(=O)oc3c2ccc2ccccc23)cc1")
0.0665
>>> numeric_value("Cc1ccc(C2=C3C=CC(C#Cc4ccccc4)=[N+]3[B-](F)(F)n3c(C#Cc4ccccc4)ccc32)cc1")
1
>>> numeric_value("Cc1ccccc1/C(C#N)=C/c1ccc(N(C)C)cc1")
0.01

QUERY: Respond only with photoluminescence quantum yield recorded for "CCCN(c1ccccc1)c1ccc2c(c1)C(CC)(CC)c1cc(/C=C/c3ccc(/C=C(\C#N)C(=O)O)s3)ccc1-2"
RESULT: 0.862

All values here come from the Deep4Chem optical property database.
